Target: T1, ZFP SBS#1069 (synthetic)
T1 chain: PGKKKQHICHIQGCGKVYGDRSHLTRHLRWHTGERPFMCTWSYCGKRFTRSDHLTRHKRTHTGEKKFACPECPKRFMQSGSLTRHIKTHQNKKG
Assay: EMSA
Conditions: tags: MBP fusion
ATTRIBUTE MEASURED: Kd (nM)

In [3]: df
Out[3]:
                                     binder  attribute_measured  reading
0  GCAGGCGGT (dsDNA) DNA 1: GCAGGCGGT DNA 2: ACCGCCTGC                  Kd      0.1
